The measured values listed here are drawn from patent US20200190192A1.

assayed-system: T1, recombinant human Tim-3-Fc (R&D Systems, 2365-TM) (human, UniProt Q8TDQ0 22-202, biotinylated in the Galectin-9 competition ELISA (sites not given))
T1 construct: Bought protein; also called huTim-3-Fc; biotinylated Tim-3-Fc; not shown: Fc of the bought fusion protein
assay-comment: SPR Biacore, human Tim-3 Fc;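 further: antibodies captured on an anti-FLAG sensor surface, Tim-3-Fc flowed over as analyte at 25 °C in HBS-EP+ buffer, rates fit with a 1:1 Langmuir model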
parameter: koff (s⁻¹)
The response must be a number in s⁻¹ with no trailing unit.

[in] koff for h22E11-VK1-39 × h22E11-VH3-23 (antibody, V domains shown, Humanized m22E11) VH: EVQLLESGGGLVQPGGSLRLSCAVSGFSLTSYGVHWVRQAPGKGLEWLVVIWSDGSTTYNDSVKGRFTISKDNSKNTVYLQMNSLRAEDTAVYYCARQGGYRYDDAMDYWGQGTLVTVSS VL: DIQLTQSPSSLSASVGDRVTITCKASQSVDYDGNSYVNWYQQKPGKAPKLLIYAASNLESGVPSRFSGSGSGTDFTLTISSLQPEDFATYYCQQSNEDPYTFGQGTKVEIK ?
[out] 0.00094

[in] Entry under review: h22E11-5-IgG-LC × h22E11-VH5-51 (antibody, V domains shown, Humanized m22E11) VH: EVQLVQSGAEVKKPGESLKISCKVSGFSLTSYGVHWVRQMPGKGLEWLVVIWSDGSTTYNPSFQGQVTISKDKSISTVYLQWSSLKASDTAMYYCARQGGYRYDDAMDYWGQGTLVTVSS VL: EIVLTQSPGTLSLSPGERATLSCKASQSVDYDGNSYVAWYQQKPGQAPRLLIYAASNLESGIPDRFSGSGSGTDFTLTISRLEPEDFAVYYCQQSNEDPYTFGQGTKVEIK . Reported koff?
[out] 0.0011

[in] Entry h22E11-VK3-11 × h22E11-5-IgG-HC (antibody, V domains shown, Humanized m22E11) VH: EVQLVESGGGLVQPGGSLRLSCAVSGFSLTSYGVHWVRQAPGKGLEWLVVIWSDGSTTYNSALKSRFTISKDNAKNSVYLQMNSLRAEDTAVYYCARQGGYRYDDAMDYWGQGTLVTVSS VL: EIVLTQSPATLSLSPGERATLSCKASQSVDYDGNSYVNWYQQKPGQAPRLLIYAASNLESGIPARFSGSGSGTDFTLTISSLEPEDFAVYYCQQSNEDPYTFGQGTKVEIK : reported koff = ?
[out] 0.00104
